# Tested on: K4 kissing-loop RNA reporter;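 also: bound reporter read as fluorescence of individual clusters on recovered sequencing chips by microscopy, with normalized cluster intensities fitted with a binding model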
# assay text: apparent KD of K4 kissing-loop reporter; higher = weaker reporter binding
# condition details: Eterna round: R107; input ligand: none
Here, each record is paired with measured apparent KD of K4 kissing-loop reporter data.

Record GCGCGUCAUGUCAGCGGUGACACUGUCGAUACCAGCGCCGGAAGGCGCCCUUGGCAGCGACGUGCUGGAGUGAUGUUCCAGCGUG [#2 Exclusion - Theophylline A Attempt #26 (HarryS)] , field apparent KD of K4 kissing-loop reporter: 178 nM

Record AUUAAGAUAUGAGUGAUGUUUAUGUCCGAAGGAGCGUGCGAAAGUACAGGUAGGUCGCGGAUGUGAGUGAUGUUUAUGUAAGCGU [KL-XArg-A15 #analogue] , field apparent KD of K4 kissing-loop reporter: 97.1 nM

Record AAGUGUCAUUAGACACAGACUACAAUAAACUAGGAUAUGCUGAUAAGCAGAAGGAGUGAUGUUCCUUUCAAGUAGUCAAUUAAAU [FmnAX 20 Mat Inspired #SwitchBubble #StaticStem #K4Late] , field apparent KD of K4 kissing-loop reporter: 106 nM

Record AUUUUUUUGUCAGGAUAUUAGUAUGGUUUUGGUUUGUUAGUGAUGUUGAUAUUUUGUUUAUGUAUUUAAGAAGGGAUUUAGCGGU [gyhhgumullin] , field apparent KD of K4 kissing-loop reporter: 356 nM

Record AGACUACUGAUAGGAUAUAACAUCCUAGUCGUAUACCGAAAGGUAUACGAUUUCCUUCUAGUGAUGUUAGAAGGGUCGGUAGUCA [Omei KL FMN B Exc B v11] , field apparent KD of K4 kissing-loop reporter: 89.1 nM

Record AUUAUAUAGGCGGCCGCCACUAGUGAUGUUAGUGACUAUAUGAAAACAUAUAGAAUAAAAUAAUAUAGGACCGGGCCAUAAUAUU [AstrosExTryB#4] , field apparent KD of K4 kissing-loop reporter: 423 nM
